Target: HCV genotype 1b (BK) NS3 modified enzyme with a R155K mutation (Hepatitis C virus genotype 1b, UniProt P26663, R1181K)
Construct: HCV genotype 1b (BK) NS3 modified enzyme
Experiment: HCV NS3 protease time-resolved fluorescence (TRF) assay, genotype 1b R155K
Type: biochemical
Settings: Ki 1b R155K, second of two values printed in the cell (not explained)
pKi: −log10 of the molar value. Counter-ions that a name gives are not always drawn.
# pKi >= 10 gives Y, anything below gives N

Solved cases below.
C=C[C@@H]1C[C@]1(NC(=O)[C@@H]1C[C@@H]2CN1C(=O)[C@H](C1CCCCC1)NC(=O)O[C@@H]1C[C@H]1CCCCCc1c(nc3ccccc3c1OC1CC3COCC(C1)N3C(=O)OC(C)(C)C)O2)C(=O)NS(=O)(=O)C1(C)CC1 (stereo partly drawn) [Example 287]	N
C=C[C@@H]1C[C@]1(NC(=O)[C@@H]1C[C@@H]2CN1C(=O)[C@H](C1CCCCC1)NC(=O)O[C@@H]1C[C@H]1CCCCCc1c(nc3ccccc3c1OC1CC3CCC(C1)N3)O2)C(=O)NS(=O)(=O)C1(C)CC1 (stereo partly drawn) [Example 283]	Y
C=C[C@@H]1C[C@]1(NC(=O)[C@@H]1C[C@@H]2CN1C(=O)[C@H](C1CCCCC1)NC(=O)O[C@@H]1C[C@H]1CCCCCc1c(nc3ccccc3c1OC1CCN(CC(F)(F)F)CC1)O2)C(=O)NS(=O)(=O)C1(C)CC1 [Example 236, formate]	N

Would you say C=C[C@@H]1C[C@]1(NC(=O)[C@@H]1C[C@@H]2CN1C(=O)[C@H](C(C)(C)C)NC(=O)O[C@@H]1C[C@H]1CCCCCc1c(nc3ccccc3c1OC1CC3CCC(C1)N3CC)O2)C(=O)NS(=O)(=O)C1(C)CC1 (single isomer, unassigned) [Example 277] shows pKi at minimum 10?
Y

Would you say C=C[C@@H]1C[C@]1(NC(=O)[C@@H]1C[C@@H]2CN1C(=O)[C@H](C(C)(C)C)NC(=O)O[C@@H]1C[C@H]1CCCCCc1c(nc3ccccc3c1OC1CC3CCC(C1)N3C(=O)OC(C)(C)C)O2)C(=O)NS(=O)(=O)C1(C)CC1 (single isomer, unassigned) [Example 278] shows pKi at minimum 10?
N

###

Target: HCV NS3 protease genotype 3a (3A-1) (Hepatitis C virus genotype 3a)
Test: HCV NS3 protease time-resolved fluorescence (TRF) assay, genotype 3a
Format: biochemical
Settings: Ki 3a
property-label: pKi
Numbers only, as −log10 of the molar value.

Worked cases, answers included:
CC1(S(=O)(=O)NC(=O)[C@@]23C[C@H]2/C=C\CCCCC[C@@H]2NC(=O)O[C@@H]4C[C@H]4CCC/C=C/c4c(nc5ccccc5c4OCCN4CCOCC4)O[C@@H]4C[C@@H](C(=O)N3)N(C4)C2=O)CC1	8.37
C=C[C@@H]1C[C@]1(NC(=O)[C@@H]1C[C@@H]2CN1C(=O)[C@H](C(C)(C)C)NC(=O)O[C@@H]1CCC[C@H]1CCCCCc1c(nc3ccccc3c1OCCN1CCOCC1)O2)C(=O)NS(=O)(=O)C1(C(C)(C)O)CC1	7.64
C=C[C@@H]1C[C@]1(NC(=O)[C@@H]1C[C@@H]2CN1C(=O)[C@H](C(C)(C)C)NC(=O)O[C@@H]1C[C@H]1CCCCCc1c(nc3ccccc3c1OCCN1CCCCC1)O2)C(=O)NS(=O)(=O)C1(C)CC1	8.21

Form field, pKi with HCV NS3 protease genotype 3a (3A-1) (Hepatitis C virus genotype 3a), item C=CC1C[C@]1(NC(=O)[C@@H]1C[C@@H]2CN1C(=O)[C@H](C1CCCC1)NC(=O)O[C@@H]1CCC[C@H]1CC/C=C/Cc1c(nc3ccccc3c1OCCN1C(=O)CCC1=O)O2)C(=O)NS(=O)(=O)C1CC1 (stereo partly shown) : 9.15

###

Molecular target: HCV genotype 1b (BK) NS3 modified enzyme with a R155K mutation (Hepatitis C virus genotype 1b, UniProt P26663, R1181K)
Construct: HCV genotype 1b (BK) NS3 modified enzyme
Assay: HCV NS3 protease time-resolved fluorescence (TRF) assay, genotype 1b R155K
Format: biochemical
Settings: Ki 1b R155K, genotype 1b (BK) NS3 R155K; single value
property-label: log10 Ki (log10 of the value in nM)
// stored as log10 of Ki expressed in nM

Worked cases, answers included:
C=C[C@@H]1C[C@]1(NC(=O)[C@@H]1C[C@@H]2CN1C(=O)[C@H](C1CCCC1)NC(=O)O[C@@H]1CCC[C@H]1CC/C=C/Cc1c(nc3ccccc3c1OCCCNC(=O)OC(C)(C)C)O2)C(=O)NS(=O)(=O)C1CC1 [Example 84]	-0.62
C=C[C@@H]1C[C@]1(NC(=O)[C@@H]1C[C@@H]2CN1C(=O)[C@H](C1CCCC1)NC(=O)O[C@]1(C)CCC[C@H]1CCCCCc1c(nc3ccccc3c1O)O2)C(=O)NS(=O)(=O)C1CC1 (single isomer, unassigned) [Example 29]	-0.92
C=C[C@@H]1C[C@]1(NC(=O)[C@@H]1C[C@@H]2CN1C(=O)[C@H](C(C)(C)C)NC(=O)O[C@@H]1C[C@H]1CCCCCc1c(nc3ccccc3c1OCCCN1CC(F)C1)O2)C(=O)NS(=O)(=O)C1(C)CC1 [Example 155]	-0.96
C=C[C@@H]1C[C@]1(NC(=O)[C@@H]1C[C@@H]2CN1C(=O)[C@H](C1CCCCC1)NC(=O)O[C@@H]1C[C@H]1CCCCCc1c(nc3ccccc3c1OCCCN1CCCOCC1)O2)C(=O)NS(=O)(=O)C1(C)CC1 [Example 168]	-1.11

Quick one: give me log10 Ki for each item below, same order please.
1. C=C[C@@H]1C[C@]1(NC(=O)[C@@H]1C[C@@H]2CN1C(=O)[C@H](C(C)(C)C)NC(=O)O[C@@H]1CCC[C@H]1CC/C=C/Cc1c(nc3ccccc3c1OCCCO)O2)C(=O)NS(=O)(=O)C1CC1 [Example 70]
2. C=C[C@@H]1C[C@]1(NC(=O)[C@@H]1C[C@@H]2CN1C(=O)[C@H](C(C)(C)C)NC(=O)O[C@@H]1CCC[C@H]1CCCCCc1c(nc3ccccc3c1OCCN1CCOCC1)O2)C(=O)NS(=O)(=O)N1CCCCC1 [Example 110]
3. C=C[C@@H]1C[C@]1(NC(=O)[C@@H]1C[C@@H]2CN1C(=O)[C@H](C(C)(C)C)NC(=O)O[C@@H]1C[C@H]1CCCCCc1c(nc3ccccc3c1OCCN1CCOC(C)(C)C1)O2)C(=O)NS(=O)(=O)C1(C)CC1 [Example 173]
4. C=C[C@@H]1C[C@]1(NC(=O)[C@@H]1C[C@@H]2CN1C(=O)[C@H](C(C)(C)C)NC(=O)O[C@@H]1CCC[C@H]1CCCCCc1c(nc3ccccc3c1OCCCN1CCOCC1)O2)C(=O)NS(=O)(=O)C1(COC)CC1 [Example 64]
5. C=C[C@@H]1C[C@]1(NC(=O)[C@@H]1C[C@@H]2CN1C(=O)[C@H](C(C)(C)C)NC(=O)O[C@@H]1CCC[C@H]1CCCCCc1c(nc3ccccc3c1OCCN1CCOCC1)O2)C(=O)NS(=O)(=O)N(C)CCOC [Example 111]

[-1.18, 1.15, -0.47, -0.37, 1.04]

###

Molecular target: HCV NS3 protease genotype 3a (3A-1) (Hepatitis C virus genotype 3a, UniProt Q81258)
Experiment: HCV NS3 protease time-resolved fluorescence (TRF) assay, genotype 3a
Format: biochemical
Settings: Ki 3a
property-label: pKi
One number for each entry, as −log10 of the molar value.

C=C[C@@H]1C[C@]1(NC(=O)[C@@H]1C[C@@H]2CN1C(=O)[C@H](C(C)(C)C)NC(=O)O[C@@H]1C[C@H]1CCCCCc1c(nc3cc(C)ccc3c1OCCCN1CCOCC1)O2)C(=O)NS(=O)(=O)C1(C)CC1	8.66
C=C[C@@H]1C[C@]1(NC(=O)[C@@H]1C[C@@H]2CN1C(=O)[C@H](C1CCCCC1)NC(=O)O[C@@H]1C[C@H]1CCCCCc1c(nc3ccccc3c1OC1CC3COCC(C1)N3)O2)C(=O)NS(=O)(=O)C1(C)CC1 (stereo partly shown)	9.65
C=C[C@@H]1C[C@]1(NC(=O)[C@@H]1C[C@@H]2CN1C(=O)[C@H](C1CCCCC1)NC(=O)O[C@@H]1C[C@H]1CCCCCc1c(nc3ccccc3c1OCCCN1CCC(C(F)(F)F)CC1)O2)C(=O)NS(=O)(=O)C1(C)CC1	7.39

Turning now to a further record.
The molecule listed as C=C[C@@H]1C[C@]1(NC(=O)[C@@H]1C[C@@H]2CN1C(=O)[C@H](C1CCCC1)NC(=O)O[C@@H]1CCC[C@H]1CC/C=C/Cc1c(nc3ccccc3c1OCCO)O2)C(=O)NS(=O)(=O)C1CC1 has a reported pKi of 8.74
